// reported protein stability index per item
# Method Notes: protein stability index of a GFP-peptide fusion (GPS, HEK-293T) (PSI 1-6); higher = more stable;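 note: 24-mer peptide tiles fused after GFP, lentivirally expressed, FACS-sorted into six equal bins by GFP/DsRed ratio, decoded by Illumina sequencing, PSI is the read-weighted mean bin number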
# Condition: treatment: DMSO; c terminus: a fixed tail appended

- Item Sequence: "NRDSSMKLSFRARAYGFRGPGPQL [CHGA]"
  protein stability index: 2.44
- Item Sequence: "VDYTGQAKAQVRKAVQYEEKNPCR [STX11]"
  protein stability index: 4.37
- Item Sequence: "NNLAASQLKLDHYRAALRSCSLVL [FKBP8]"
  protein stability index: 2.62
- Item Sequence: "RGIDIIKWMERYLRDKTVMIIVAI [TRAF3IP2]"
  protein stability index: 2.25
- Item Sequence: "KIRDWYQRQAPGPARDYSQYYRTI [KRT17]"
  protein stability index: 2.19

// query # input sequence: LFGGFTTDKQPLSDAWTYCISKNE [KLHDC2] ; wanted: its protein stability index
// result 2.63

// query What about this sequence? EEKQHLERLNKEYQEIFQQLQRSW [TRIM43]
// result 3.84

// query What about this sequence? IKEVIFMSDKYHDSDEATAARLLF [DCTD]
// result 2.57

* * *

// reported protein stability index per item
# Method Notes: protein stability index of a GFP-peptide fusion (GPS, HEK-293T) (PSI 1-6); higher = more stable
# Condition: treatment: MLN4924 1 uM, 8 h; c terminus: a fixed tail appended
Write the value as a bare number.

- Item Sequence: "QETRGELQCRSPPRLHGAKAILDA [TBC1D10A]"
  Reported: 4.62
- Item Sequence: "RGIDIIKWMERYLRDKTVMIIVAI [TRAF3IP2]"
  Reported: 2.33
- Item Sequence: "RSQQQEPLLCPSYQSYFKTIEELQ [KRT33B]"
  Reported: 3.43
- Item Sequence: "TGVFITLSIVLERMRYEGVVDIFQ [PTPRD]"
  Reported: 3.66
- Item Sequence: "ERENVAVAKLQESQPGNAVIDKET [SDE2]"
  Reported: 5.06

// query # input sequence: KDREYTDIIRKQVLGTKVDAERDG [CDC34] ; wanted: its protein stability index
// result 4.99

// query What about this sequence? YDDVRRCCSSADICPKCWTLMTMA [PRIM1]
// result 3.4

// query What about this sequence? FLDLVKPEPVYKLTQRQVNITVQK [HACD3]
// result 2.79

// query What about this sequence? VNLYLGRSHFLWKEPATMSWLEEN [TCF25]
// result 2.54

* * *

# Method Notes: protein stability index of a GFP-peptide fusion (GPS, HEK-293T) (PSI 1-6); higher = more stable
# Condition: treatment: MLN4924 1 uM, 8 h; c terminus: a fixed tail appended
// reported protein stability index per item
Write the value as a bare number.

Would you please look over these solved cases?
- Item Sequence: "FVCQCYSGYALAEDGKRCVAVDYC [MATN2]"
  Reported: 2.77
- Item Sequence: "SQFSGTLMRTCERLVKEGRFVPSN [PPTC7]"
  Reported: 3.04
- Item Sequence: "ASTEADKRLSRFDIEMSMRGDIFE [NLN]"
  Reported: 4.14

// query # input sequence: QPASELLQDVRVNQSRCEMKTFVS [TRIM15] ; wanted: its protein stability index
// result 3.25

// query What about this sequence? SPPGSTKRRKSMSGASPKESTNPE [CDC25A]
// result 5.4

// query What about this sequence? VDGPDLEMLTGQERVALANRKREC [FKBP8]
// result 5.14

// query What about this sequence? IVSQKQIADRAAHDESPGNNVVDI [RAB11B]
// result 5.12

// query What about this sequence? FWQTQYNNMNAVNLFFAWIKIFKY [PKD2L1]
// result 2.19

// query What about this sequence? MGPDEYEEMEEEEEEEEEEDEDDD [FBXO3]
// result 5.47

// query What about this sequence? SEDVNWGYEKRNLARVPKLDLKRQ [CHGB]
// result 4.27

// query What about this sequence? PYIPPHAALCLEVTLKTAVDGPDL [FKBP8]
// result 2.23

// query What about this sequence? FEMKKGQCKDALEIYKRFLTRMTR [SNAP91]
// result 2.56

// query What about this sequence? PAGAGPSPTFPALGIGMDSCVIPL [SEPHS2]
// result 3.26

// query What about this sequence? FIPSLKYVQWSLPFIVFGATGLTS [SLC22A15]
// result 3.33

// query What about this sequence? NTDVSMENMVTVGFFSCMGTLCIG [KCNK9]
// result 2.8

// query What about this sequence? KKKKTKKIKEKYIDQEELNKTKPI [HSP90AB1]
// result 4.53

// query What about this sequence? YPDAEDPQLGLDGPGEPDVRDGFS [PSD2]
// result 5.46

// query What about this sequence? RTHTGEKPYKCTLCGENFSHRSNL [ZNF263]
// result 2.79

// query What about this sequence? FSQEIGLASLGASEEAVQKLATCY [TPH1]
// result 3.34

// query What about this sequence? SSEAFHNYMNAAMVHINRALKLII [RTN3]
// result 2.06

// query What about this sequence? KKVYLTGFALDILFAIANGFSPSY [SLC22A15]
// result 3.42

// query What about this sequence? RMETPKSREITTLANNQCMATESV [EHMT1]
// result 4.79

// query What about this sequence? KKRRAQQAPPQDSSNKKEKKVLNH [DYRK1B]
// result 5.3

// query What about this sequence? QWTVGKLNCPFCGARLGGFNFVST [RNF180]
// result 2.65

// query What about this sequence? APWWFWLSLTGVSLAGALGVKFVG [POMT2]
// result 2.27

* * *

// reported protein stability index per item
# Method Notes: protein stability index of a GFP-peptide fusion (GPS, HEK-293T) (PSI 1-6); higher = more stable
# Condition: treatment: DMSO; c terminus: a fixed tail appended
Write the value as a bare number.

Would you please look over these solved cases?
- Item Sequence: "YTVSATAPGYDPETVTVTVGPAEP [CPN1]"
  protein stability index: 3.61
- Item Sequence: "DDRKLAALLKFHTLDSYEDKQKLK [YJU2B]"
  protein stability index: 3.97
- Item Sequence: "ISDRYSPELRQLVLSLLSLEPAQR [NEK8]"
  protein stability index: 2.66
- Item Sequence: "DINREQLNDIFHLLKSHTNVLSVN [TPH1]"
  protein stability index: 2.18

// query # input sequence: QSEHTMVLRCQLSAEEVRFPVSVT [C2CD2L] ; wanted: its protein stability index
// result 2.64

// query What about this sequence? TAFLLNIQLFEELQELLTHDTKDQ [HMOX1]
// result 2.32

// query What about this sequence? NYQVFQKVTDHATTALLHYQLPQM [MED27]
// result 2.52

// query What about this sequence? REIMEKFGKQPVSLPARRLKLRGR [CPXM2]
// result 3.64

// query What about this sequence? MMHGRSYSLASGAGGGGSKGNSLK [RAB40C]
// result 4.32

// query What about this sequence? SQEPDPVQRLQAYTATEQEMQQQM [TRIM14]
// result 5.39

// query What about this sequence? KENREEARFQDKQYSSHHTAEKRK [CHGB]
// result 5.21

// query What about this sequence? PPRKSGSFHSSGEKQKQPRWREGT [PBXIP1]
// result 4.4

// query What about this sequence? VLRFLPAFVRMKQLIEEGYVGEPL [GFOD1]
// result 2.2

* * *

# Method Notes: protein stability index of a GFP-peptide fusion (GPS, HEK-293T) (PSI 1-6); higher = more stable
# Condition: treatment: DMSO; c terminus: a fixed tail appended
// reported protein stability index per item
Write the value as a bare number.

- Item Sequence: "FTAALEHCRENAHDKIRPISSIGQ [SPACA9]"
  Reported: 3.3
- Item Sequence: "DKGEKLLRCKLAAFYRLADLFGWS [ADD1]"
  Reported: 2.59
- Item Sequence: "DQIGSEIIEELGEQRDQLERTKSR [VTI1B]"
  Reported: 5.53
- Item Sequence: "VIFQREQESKNQVHRRGEYNVYST [PPP2R2B]"
  Reported: 3.06
- Item Sequence: "RKPPVFDENEDVNFDHFEILRAIG [STK32A]"
  Reported: 2.76
- Item Sequence: "AVINWVKHAKKEREESLPNLLQYV [KLHL12]"
  Reported: 2.02

// query # input sequence: EQPHGRSRRREQSSSRNSHLVQHQ [ZNF8] ; wanted: its protein stability index
// result 4.78

// query What about this sequence? KKRRAQQAPPQDSSNKKEKKVLNH [DYRK1B]
// result 5.2

// query What about this sequence? PSLPSCLCSFLLLLLLQVSSSYAG [MOG]
// result 2.44

// query What about this sequence? DIHGLRKVIDDTNITRLQLETEIE [KRT18]
// result 4.28

// query What about this sequence? DIREEIRKVVQSLEQTAREILTLL [TSN]
// result 3.73

// query What about this sequence? PFKAYLDVDITLSSEAFHNYMNAA [RTN3]
// result 2.92

// query What about this sequence? DHNEAMKPEEPPQNLLREKIMKLP [PCMTD1]
// result 4.63
